B1: HDV Ribozyme (parent)
chain: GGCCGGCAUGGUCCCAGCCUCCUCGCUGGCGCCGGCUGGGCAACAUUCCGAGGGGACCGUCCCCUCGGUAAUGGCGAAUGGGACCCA

- Variants of: B1
- ASSAY_TEXT: self-cleavage, relative activity (ratio to wild type); higher = more cleavage; co-transcriptional
REPORTED_ENDPOINT: self-cleavage
Give bare numbers.

- G10A A45G: 0.598

I'm hoping you can list self-cleavage for every variant here, please.
1. U46A G68A
2. A45G C62G
3. U12A C63G
4. U46A A77C
5. C62A U69A
6. A45C A71G
7. G31A G54U

(A)
[0.65, 0.587, 0.293, 0.119, 0.997, 1.11, 0.197]

# map each variant to its self-cleavage
1. U60C C75G
2. C15U C30A

(A)
1: 0.128; 2: 0.567

// data source = the RNAGym collection of RNA variant scans (doi:10.7554/elife.80360)
